System: PPARg DBDmut:RXRa IVT, anti-PPARg (DBD mutation: PPARg1 K132A/R137A, NR concentration 270 nM, RXRa partner concentration 90 nM)
Test: PBM binding z-score (relative to random genomic background probes); higher = stronger binding; sequences stand for … in GC…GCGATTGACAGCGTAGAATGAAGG
Here, each record is paired with measured PBM binding z-score data.
# output: bare number, no unit

ACTAGTTGGTCAGCTGAGGTCACTCACAATTCGG    0.323
TCATATAGGTAAAGGTCAAAGTCGAACGATATGA    2.71
ATCTCTAGGAAACCAAGTTCAGTGAATGCCGAAC    0.852
TCATCTAGGTAAAAGGTGAAAGTCGGTGTGGTAA    2.1
CGAACGAGGGTATGAGTTGATAGCAAATGCCGAT    0.137

Please find the next sequence below.
Fill in the blank: the reported PBM binding z-score of ATATGTAGGTTACATCCGGGTAATTCAGGCTATG is ____.
4.3

Hey, just so you know, these numbers are from the supplement of paper PMC6555819.
